- experimental_system: T1, human PD-L1-His (Sino Biological, Cat #10084-H08H) (human, UniProt Q9NZQ7 19-238)
- T1 construct: Bought protein; also called human PD-L1 ECD-His; recombinant human PD-L1-His protein; not shown: His tag
- T1 sequence (Q9NZQ7 19-238): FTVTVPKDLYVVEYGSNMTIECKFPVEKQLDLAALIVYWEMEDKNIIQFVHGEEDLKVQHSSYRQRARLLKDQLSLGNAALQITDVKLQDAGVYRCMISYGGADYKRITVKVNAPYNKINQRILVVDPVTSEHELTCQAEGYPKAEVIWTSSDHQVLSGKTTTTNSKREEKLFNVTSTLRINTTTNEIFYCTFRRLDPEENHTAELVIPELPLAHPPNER
- assay_text: BLI (Gator), antibody on HFC probe, human PD-L1-His in solution
measured_attribute: kon (M⁻¹ s⁻¹)
Give just the number in M⁻¹ s⁻¹; leave the unit off.

Give kon for the following binder: 33H7 (antibody, human IgG1, V domains shown) VH: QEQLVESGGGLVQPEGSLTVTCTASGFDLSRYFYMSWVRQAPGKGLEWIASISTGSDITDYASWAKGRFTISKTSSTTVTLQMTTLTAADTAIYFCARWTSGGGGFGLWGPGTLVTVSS VL: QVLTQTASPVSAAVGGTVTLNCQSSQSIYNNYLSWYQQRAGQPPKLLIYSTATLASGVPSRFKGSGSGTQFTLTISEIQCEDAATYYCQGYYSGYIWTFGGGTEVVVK
536000

Give kon for the following binder: 74F4 (antibody, human IgG1, V domains shown) VH: QEQLEESGGGLVQPEGSLTLTCTASGFSFSGDYYMSWVRQAPGKGLEWIASIYTGSLNTYYATWAKGRFTISLTSSTTVTLQMTSLTAADTATYFCARRNKNADYGHFDLWGPGTLVTVSS VL: YDMTQTPASVEVAVGGTVTIKCQASQSINDRLAWYQQSPGQPPKLLIYGASTLASGVPSRFKGSGSGTDFTLTISDLECADAATYYCQQGWTVSSLDNAFGGGTEVVAK
648000

Give kon for the following binder: 69D10 (antibody, human IgG1, V domains shown) VH: QEQLEESGGGLVQPEGSLTLTCTASGFSFSGDWYMSWVRQAPGKGLEWIASIYSGSLNTYYATWAKGRFTVSLTSSTTVTLQMTSLTAADTATYFCARRNKNADYGHFDLWGPGTLVTVSS VL: YDMTQTPASVEVAVGGTVTIKCQASQSIGNALAWYQQKPGQPPKLLIYATSTLASGVPSRFKGSGSGTEFTLTISDLECGDAATYYCQQGWTVSSLDNAFGGGTEVVAK
718000

Give kon for the following binder: 27A2 (antibody, human IgG1, V domains shown) VH: QEQLEESGGGLVQPEGSLTLTCTASGFSFSSNHYMSWVRQAPGKGLEWIGSIGVGSGITDYASWAKGRFTISKASSTTLTLQMTTLTAADTAIYFCARWTSGGGGFGLWGPGTLVTVSS VL: QVLTQTSSPVSAAVGGTVTINCQSSQTIYSDYLFWYQQTPGQPPKLLIYQTSTLASGVPSRFKGSGSGTEFTLTISEIQCDDAATYYCQGYYSGYIWTFGGGTEVVVR
643000

Give kon for the following binder: 74A9 (antibody, human IgG1, V domains shown) VH: QSVEESGGRLVTPGTPLTLTCAVSGFSLSTYALGWVRQAPGKGLEWIGSISIGGATYYASWAKGRFTISKTSTTVDLKIASPTTEDTATYFCARNVDSIYLDAFHTWGPGTLVTVSL VL: DIVMTQTPASVEAAVGGTVTIKCQASQNIYNNLAWYQQKPGQPPKLLIYRASTLASGVPSRFKGSGSGTEYTLTISDLECDDAATYYCQTYYLTTTTNAFGGGTEVVVK
643000
